Answer each item with its documented ELISA CD137 (RLU).
# Subject of test: T1, recombinant biotinylated CD137 protein (Fc-fusion protein, R&D Systems 838-4B) (human, UniProt Q07011 24-186, biotinylated, sites not stated)
# T1 construct: Bought Fc fusion; also called CD137-Fc
# Assay: ELISA, lysate on biotinylated CD137-Fc
# Procedure: Streptavidin-coated Maxisorp plates (Nunc catalog 436110) were blocked for 1 h in Starting Block T20 (Pierce) and then coated with biotinylated CD137 (using same antigen as in panning) or negative controls (an unrelated Fc-fused recombinant protein and human serum albumin) for 1 h. Plates were rinsed with TBST and diluted lysate was applied to plates for 1 h. […]
Answers are plain numbers, in RLU.

Worked examples, 2 binders total:
ISOP193FR9P1G10 (designed binder, not shown: small tags and cut ends) LPAPKNLVVSRVTEDSARLSWTAPDAAFDSFTIYYFENENGGEAIVLTVPGSERSYDLTGLKPGTEYLVTIYGVKGGHWSRPLSAIFTT :: 8.91e+06
ISOP193ER9P1D4 (designed binder, not shown: small tags and cut ends) LPAPKNLVVSRVTEDSARLSWTAPDAAFDSFDIYYFEHPVGGEAIVLTVPGSERSYDLTGLKPGTEYLVTIYGVKGGTYSPPLSAIFTT :: 1.6e+07

# next binder below
Prompt: Consider the binder ISOP193FR9P1E1 (designed binder, not shown: small tags and cut ends) LPAPKNLVVSRVTEDSARLSWTAPDAAFDSFIIRYLEDISYGEAIVLTVPGSERSYDLTGLKPGTEYHVGIEGVKGGNVSWPLSAIFTT and give its measured ELISA CD137 (RLU).
Response: 1.16e+07
